- system: mu opiate receptor (MOR) (Rattus norvegicus, UniProt P33535)
- Construct: from tissue; host or cells: striatum (membrane preparation)
- Sequence (P33535 whole entry): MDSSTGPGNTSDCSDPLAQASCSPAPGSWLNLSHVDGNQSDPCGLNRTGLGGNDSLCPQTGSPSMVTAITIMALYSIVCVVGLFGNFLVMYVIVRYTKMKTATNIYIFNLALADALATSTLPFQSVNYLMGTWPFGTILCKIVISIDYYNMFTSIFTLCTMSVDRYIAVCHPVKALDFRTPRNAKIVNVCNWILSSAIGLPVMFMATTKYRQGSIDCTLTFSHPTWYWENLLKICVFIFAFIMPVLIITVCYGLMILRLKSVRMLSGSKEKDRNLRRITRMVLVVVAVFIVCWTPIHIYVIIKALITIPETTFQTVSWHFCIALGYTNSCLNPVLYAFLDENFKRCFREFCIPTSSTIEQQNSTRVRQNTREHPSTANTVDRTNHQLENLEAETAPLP
- Assay type: biochemical
- run_parameters: [35S]GTPγS binding to Gαo in striatal membranes; compound 1 μM
experimental_readout: Concentration of FLNA-Binding Compound as Agonist 1 μM (%)
Dear colleague, please return just the value in %, with no unit written.

Look at this compound and give its reported Concentration of FLNA-Binding Compound as Agonist 1 μM. COc1c2c(cc3c1C(CC(O)CCc1ccccc1)[N+](C)(C)CC3)OCO2 (stereo not drawn) 151.7

Look at this compound and give its reported Concentration of FLNA-Binding Compound as Agonist 1 μM. COc1ccc(OC)c(CCC(=O)CC2c3c(cc4c(c3OC)OCO4)CC[N+]2(C)C)c1 (stereo not drawn) 170.0

Look at this compound and give its reported Concentration of FLNA-Binding Compound as Agonist 1 μM. COc1ccc(S(=O)(=O)N2CCC3(OCCN3S(=O)(=O)c3ccc(OC)cc3)C3CCCCC32)cc1 (stereo not drawn) [Compound C0144M] 295.9

Look at this compound and give its reported Concentration of FLNA-Binding Compound as Agonist 1 μM. CC1CCC(C(C)C)C(OCC(O)CN2CCCC2)C1 (stereo not drawn) 181.7

Look at this compound and give its reported Concentration of FLNA-Binding Compound as Agonist 1 μM. OC(COc1cccc(F)c1)CN1CCc2ccccc2C1 (stereo not drawn) 195.2

Look at this compound and give its reported Concentration of FLNA-Binding Compound as Agonist 1 μM. CC1CCC(C(C)C)C(OCC(O)CN2CCN(CCCN3CCOCC3)CC2)C1 (stereo not drawn) 179.8

Look at this compound and give its reported Concentration of FLNA-Binding Compound as Agonist 1 μM. COCOc1ccc(CCC(=O)CC2c3c(cc4c(c3OC)OCO4)CC[N+]2(C)C)cc1 (stereo not drawn) 243.3

Look at this compound and give its reported Concentration of FLNA-Binding Compound as Agonist 1 μM. O=C(c1ccc([N+](=O)[O-])cc1)N1CCC2(CC1)OCCN2C(=O)c1ccc([N+](=O)[O-])cc1 202.0

Look at this compound and give its reported Concentration of FLNA-Binding Compound as Agonist 1 μM. CC(C)c1ccc(S(=O)(=O)N2CCC3(CC2)OCCN3S(=O)(=O)c2ccc(C(C)C)cc2)cc1 195.0

Look at this compound and give its reported Concentration of FLNA-Binding Compound as Agonist 1 μM. COc1c2c(cc3c1C(CC(=O)CCc1ccc(F)cc1)[N+](C)(C)CC3)OCO2 (stereo not drawn) 143.0

Look at this compound and give its reported Concentration of FLNA-Binding Compound as Agonist 1 μM. COc1cc(C(=O)CC2c3c(cc4c(c3OC)OCO4)CC[N+]2(C)C)cc(OC)c1OC (stereo not drawn) 186.0

Look at this compound and give its reported Concentration of FLNA-Binding Compound as Agonist 1 μM. CC(=O)c1ccc(S(=O)(=O)N2CCC3(CC2)OCC(CCCCN(C)C)N3S(=O)(=O)c2ccc(C(C)=O)cc2)cc1 (stereo not drawn) [Compound C0080M] 205.4
